Data provenance is the Immune Epitope Database (IEDB).

target: HLA-B*57:01; experiment: IEDB peptide-MHC binding, purified MHC/competitive/fluorescence; filed as Kd, often an IC50 or EC50 that approximates it; bounds were set here for any values at or beyond the usual limits of such assays; details: source organism: Escherichia coli F11
MEASUREMENT NAME: Kd

{"BIOPOLYMER SEQUENCE": "GSGDDTWLI", "MEASUREMENT NAME": "Kd", "ENDPOINT RESULT": "≥ 20 µM"}

* * *

target: HLA-A*03:01; experiment: IEDB peptide-MHC binding, purified MHC/direct/fluorescence; filed as Kd, often an IC50 or EC50 that approximates it; bounds were set here for any values at or beyond the usual limits of such assays; details: source organism: Coxiella burnetii
pKd: −log10 of the molar value.
MEASUREMENT NAME: pKd

{"BIOPOLYMER SEQUENCE": "ITLYEYDHF", "MEASUREMENT NAME": "pKd", "ENDPOINT RESULT": "≤ 4.70"}

* * *

target: HLA-B*57:01; assay: IEDB peptide-MHC binding, purified MHC/direct/fluorescence; filed as Kd, often an IC50 or EC50 that approximates it; bounds were set here for any values at or beyond the usual limits of such assays; conditions: source organism: Yersinia enterocolitica subsp. enterocolitica 8081

{"BIOPOLYMER SEQUENCE": "KSRQGDTKV", "ASSAY TARGET": "HLA-B*57:01", "Kd": "≥ 20 µM"}

* * *

This listing pairs sequences with measured Kd.
molecular target: HLA-B*58:01; assay: IEDB peptide-MHC binding, purified MHC/direct/fluorescence; filed as Kd, often an IC50 or EC50 that approximates it; bounds were set here for any values at or beyond the usual limits of such assays; settings: source organism: Salmonella enterica
MEASUREMENT NAME: Kd

{"BIOPOLYMER SEQUENCE": "NVHRSQFAQ", "ASSAY TARGET": "HLA-B*58:01", "ENDPOINT RESULT": "≥ 20 µM"}
{"BIOPOLYMER SEQUENCE": "WTLETLPRV", "ASSAY TARGET": "HLA-B*58:01", "ENDPOINT RESULT": "≥ 20 µM"}

* * *

target: HLA-B*15:17; assay: IEDB peptide-MHC binding, purified MHC/competitive/fluorescence; filed as Kd, often an IC50 or EC50 that approximates it; bounds were set here for any values at or beyond the usual limits of such assays; settings: source organism: Toxoplasma gondii
MEASUREMENT NAME: Kd

{"BIOPOLYMER SEQUENCE": "VSSHKGWAK", "ENDPOINT RESULT": "≥ 20 µM"}

* * *

biological target: HLA-A*23:01; assay: IEDB peptide-MHC binding, purified MHC/competitive/fluorescence; filed as Kd, often an IC50 or EC50 that approximates it; bounds were set here for any values at or beyond the usual limits of such assays; details: source organism: Bacillus cereus G9241
pKd: −log10 of the molar value.
MEASUREMENT NAME: pKd

{"BIOPOLYMER SEQUENCE": "DEEAINLFH", "ENDPOINT RESULT": "≤ 4.70"}

* * *

biological target: HLA-A*03:01; assay: IEDB peptide-MHC binding, purified MHC/direct/fluorescence; filed as Kd, often an IC50 or EC50 that approximates it; bounds were set here for any values at or beyond the usual limits of such assays; settings: source organism: Orthohantavirus sinnombreense

{"BIOPOLYMER SEQUENCE": "FRYKSRCYV", "ASSAY TARGET": "HLA-A*03:01", "Kd": "≥ 20 µM"}

* * *

Below, each entry is listed with its recorded pKd.
biological target: HLA-A*33:01; experiment: IEDB peptide-MHC binding, purified MHC/competitive/radioactivity; filed as Kd, often an IC50 or EC50 that approximates it; bounds were set here for any values at or beyond the usual limits of such assays; conditions: source organism: Lymphocytic choriomeningitis virus (strain Armstrong)
pKd: −log10 of the molar value.
MEASUREMENT NAME: pKd

{"BIOPOLYMER SEQUENCE": "YSKFWYLEH", "ASSAY TARGET": "HLA-A*33:01", "MODIFIER": "=", "ENDPOINT RESULT": 4.91}
{"BIOPOLYMER SEQUENCE": "VVKWKRDEH", "ASSAY TARGET": "HLA-A*33:01", "MODIFIER": "≤", "ENDPOINT RESULT": 4.11}

* * *

molecular target: HLA-A*24:02; experiment: IEDB peptide-MHC binding, purified MHC/competitive/fluorescence; bounds were set here for any values at or beyond the usual limits of such assays; settings: source organism: Sudan ebolavirus
Attribute: IC50
MEASUREMENT NAME: IC50 (µM)

{"BIOPOLYMER SEQUENCE": "IDNNTFVRL", "MODIFIER": "=", "ENDPOINT RESULT": 67.9}
{"BIOPOLYMER SEQUENCE": "LIWTLDANI", "MODIFIER": "≥", "ENDPOINT RESULT": 80.4}
{"BIOPOLYMER SEQUENCE": "ETFLQSPPI", "MODIFIER": "=", "ENDPOINT RESULT": 13.9}
{"BIOPOLYMER SEQUENCE": "HYWTAQEQH", "MODIFIER": "=", "ENDPOINT RESULT": 51.1}
{"BIOPOLYMER SEQUENCE": "NYTENTSSY", "MODIFIER": "=", "ENDPOINT RESULT": 6.23}
{"BIOPOLYMER SEQUENCE": "EWAENCYNL", "MODIFIER": "=", "ENDPOINT RESULT": 6.48}
{"BIOPOLYMER SEQUENCE": "AFFLYDRLA", "MODIFIER": "≥", "ENDPOINT RESULT": 151}
{"BIOPOLYMER SEQUENCE": "RRWGGTCRI", "MODIFIER": "=", "ENDPOINT RESULT": 0.708}

* * *

biological target: HLA-B*15:17; assay: IEDB peptide-MHC binding, purified MHC/direct/fluorescence; filed as Kd, often an IC50 or EC50 that approximates it; bounds were set here for any values at or beyond the usual limits of such assays; details: source organism: Bacillus anthracis
pKd: −log10 of the molar value.
// pKd lookup, one value per entry

{"BIOPOLYMER SEQUENCE": "TPRIANRLL", "ASSAY TARGET": "HLA-B*15:17", "pKd": "≤ 4.70"}
{"BIOPOLYMER SEQUENCE": "PTDYAKPQY", "ASSAY TARGET": "HLA-B*15:17", "pKd": "≤ 4.70"}

* * *

target: HLA-A*68:01; assay: IEDB peptide-MHC binding, purified MHC/competitive/radioactivity; filed as Kd, often an IC50 or EC50 that approximates it; bounds were set here for any values at or beyond the usual limits of such assays; conditions: source organism: Vaccinia virus WR
pKd: −log10 of the molar value.
Class assignment keyed on pKd, ranges Low (below 6), Mid (6 to below 8), High (8 or more)

{"BIOPOLYMER SEQUENCE": "LFKNVRLLK", "GROUP LABEL": "Low"}
{"BIOPOLYMER SEQUENCE": "NTILLSDKGK", "GROUP LABEL": "High"}
{"BIOPOLYMER SEQUENCE": "DIVNEHDIKY", "GROUP LABEL": "Low"}
{"BIOPOLYMER SEQUENCE": "AVNTPVSMTY", "GROUP LABEL": "Low"}
{"BIOPOLYMER SEQUENCE": "PLHKYCVNLY", "GROUP LABEL": "Low"}
{"BIOPOLYMER SEQUENCE": "VLMHPDFCK", "GROUP LABEL": "Mid"}
{"BIOPOLYMER SEQUENCE": "ASTTENAAY", "GROUP LABEL": "Low"}
{"BIOPOLYMER SEQUENCE": "EINEWLSSK", "GROUP LABEL": "High"}
{"BIOPOLYMER SEQUENCE": "LIVTFRERY", "GROUP LABEL": "Mid"}
{"BIOPOLYMER SEQUENCE": "YMVTDKTAY", "GROUP LABEL": "Low"}
{"BIOPOLYMER SEQUENCE": "AIITPVVFYR", "GROUP LABEL": "High"}
{"BIOPOLYMER SEQUENCE": "FFVFIHMVR", "GROUP LABEL": "High"}
{"BIOPOLYMER SEQUENCE": "PVDTEFINK", "GROUP LABEL": "Low"}
{"BIOPOLYMER SEQUENCE": "ELESLSKRER", "GROUP LABEL": "Mid"}
{"BIOPOLYMER SEQUENCE": "IQKITVFNK", "GROUP LABEL": "Low"}
{"BIOPOLYMER SEQUENCE": "LMTLDDLAIK", "GROUP LABEL": "Low"}
{"BIOPOLYMER SEQUENCE": "NIRLTDTEYR", "GROUP LABEL": "High"}
{"BIOPOLYMER SEQUENCE": "AATIQTPTK", "GROUP LABEL": "Low"}
